B1: Osa-1-4 twister ribozyme (parent)
chain: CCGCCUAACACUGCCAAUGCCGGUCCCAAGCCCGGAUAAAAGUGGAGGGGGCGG

- Variants of: B1
- procedureText: self-cleavage, relative activity (ratio to wild type); higher = more cleavage; co-transcriptional
Returns one of satisfied or not satisfied; satisfied when self-cleavage is >= 0.8.

In [3]: df
Out[3]:
   variantid  discretelabel
0  A38U G50C      satisfied
1       G13A  not satisfied
2  A39C U12A  not satisfied
3  A36U G30A  not satisfied
4  C11U G47A  not satisfied
5  A16G A36G      satisfied
6       C27A  not satisfied
7  A16C G23U  not satisfied

Data credit: the RNAGym collection of RNA variant scans (doi:10.1002/anie.201605470)
